# Test system: Human gammaherpesvirus 4
# method-notes: In vitro ability of compound to induce Epstein-Barr virus early antigen (EBV-EA) activity at 10 e-7 M concentration
# Type: functional
# Activity >= 1% gives yes, anything below gives no

Answered cases to consult:
| compound | label-class |
| --- | --- |
| CC(C)[C@H]1C(=O)N[C@H](CO)Cc2c[nH]c3cccc(c23)N1C [INDOLACTUM] | yes |
| CC(C)[C@H]1C(=O)N[C@H](CO)Cc2c[nH]c3ccc4c(c23)N1[C@@H](C)C4 | no |
| Cc1ccc2[nH]cc3c2c1N(C)[C@@H](C(C)C)C(=O)N[C@H](CO)C3 | no |
| Cc1cc2ccc3[nH]cc4c3c2n1[C@@H](C(C)C)C(=O)N[C@H](CO)C4 | yes |

Consider now this further compound.
Enquiry: Record `CC(C)[C@H]1C(=O)N[C@H](CO)Cc2c[nH]c3ccc4c(c23)N1[C@H](C)C4` ; criterion: Activity no lower than 1%. Met?
Return: yes

###

# Test system: Human gammaherpesvirus 4
# method-notes: In vitro ability of compound to induce Epstein-Barr virus early antigen (EBV-EA) activity at 10 e-5 M concentration
# Type: functional
Please note: T applies when Activity is 20% or greater, and F applies otherwise.

The examples below pair each entry with its known result.
| smiles-structure | label-class |
| --- | --- |
| CC(C)[C@H]1C(=O)N[C@H](CO)Cc2c[nH]c3ccc4c(c23)N1[C@@H](C)C4 | F |
| Cc1ccc2[nH]cc3c2c1N(C)[C@@H](C(C)C)C(=O)N[C@H](CO)C3 | F |
| Cc1cc2ccc3[nH]cc4c3c2n1[C@@H](C(C)C)C(=O)N[C@H](CO)C4 | T |

Enquiry: Would you say `CC(C)[C@H]1C(=O)N[C@H](CO)Cc2c[nH]c3ccc4c(c23)N1[C@H](C)C4` shows Activity at minimum 20%?
Return: F

Enquiry: // next record `CC(C)[C@H]1C(=O)N[C@H](CO)Cc2c[nH]c3cccc(c23)N1C`
Return: T

###

# Test system: Human gammaherpesvirus 4
# method-notes: In vitro ability of compound to induce Epstein-Barr virus early antigen (EBV-EA) activity at 10 e-6 M concentration
# Type: functional
Tick MET if Activity is 10% or greater. Tick NOT MET if Activity is less than 10%.

| smiles-structure | label-class |
| --- | --- |
| Cc1cc2ccc3[nH]cc4c3c2n1[C@@H](C(C)C)C(=O)N[C@H](CO)C4 | MET |
| CC(C)[C@H]1C(=O)N[C@H](CO)Cc2c[nH]c3ccc4c(c23)N1[C@H](C)C4 | MET |
| CC(C)[C@H]1C(=O)N[C@H](CO)Cc2c[nH]c3ccc4c(c23)N1[C@@H](C)C4 | NOT MET |
| Cc1ccc2[nH]cc3c2c1N(C)[C@@H](C(C)C)C(=O)N[C@H](CO)C3 | NOT MET |

Enquiry: Please tell me: is the molecule `CC(C)[C@H]1C(=O)N[C@H](CO)Cc2c[nH]c3cccc(c23)N1C` at or over 10% in terms of Activity?
Return: MET
